Biological target: T1, Dimeric monkey CD48-mFc (monkey)
T1 construct: Soluble monkey CD48 with a C-terminal Fc fusion [mFc]; the whole entry is the construct
T1 chain: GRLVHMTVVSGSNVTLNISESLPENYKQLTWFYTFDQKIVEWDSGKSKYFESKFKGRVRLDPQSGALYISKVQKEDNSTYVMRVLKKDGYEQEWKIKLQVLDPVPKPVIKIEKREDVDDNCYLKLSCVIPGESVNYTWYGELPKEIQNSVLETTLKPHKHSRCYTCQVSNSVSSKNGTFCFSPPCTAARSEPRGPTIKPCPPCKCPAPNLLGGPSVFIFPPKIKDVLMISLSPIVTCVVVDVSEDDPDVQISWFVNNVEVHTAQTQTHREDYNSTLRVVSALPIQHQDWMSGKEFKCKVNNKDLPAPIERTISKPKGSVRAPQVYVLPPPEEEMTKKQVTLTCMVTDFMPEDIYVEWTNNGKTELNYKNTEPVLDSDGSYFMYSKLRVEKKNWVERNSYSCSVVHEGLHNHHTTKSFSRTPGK
Assay: SPR (Biacore), antibody captured by anti-Fc, CD48 in solution, 25 C
koff values for the binders below.
// note: answer is a bare numeric in s⁻¹

Known koff results, listed for orientation:
{"binder": "H4H1775P (antibody, human IgG4, V domains shown, Human IgG4 Fc (H4H)) VH: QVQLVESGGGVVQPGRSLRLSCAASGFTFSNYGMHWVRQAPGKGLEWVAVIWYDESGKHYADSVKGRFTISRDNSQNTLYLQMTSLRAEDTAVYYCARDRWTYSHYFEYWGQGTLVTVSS VL: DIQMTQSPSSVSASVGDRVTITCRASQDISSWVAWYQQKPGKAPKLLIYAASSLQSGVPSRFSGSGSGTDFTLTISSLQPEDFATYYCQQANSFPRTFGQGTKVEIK", "result_unit": "s⁻¹", "koff": "6.6e-06"}
{"binder": "H4H1713N (antibody, V domains shown, Human IgG4 Fc (H4H)) VH: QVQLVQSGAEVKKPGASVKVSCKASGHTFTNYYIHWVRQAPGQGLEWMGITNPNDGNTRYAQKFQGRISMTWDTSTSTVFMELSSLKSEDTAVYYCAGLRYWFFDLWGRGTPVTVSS VL: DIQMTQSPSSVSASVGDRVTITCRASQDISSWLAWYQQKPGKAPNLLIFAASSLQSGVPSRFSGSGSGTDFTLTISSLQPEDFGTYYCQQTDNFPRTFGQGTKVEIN", "result_unit": "s⁻¹", "koff": 0.000242}

API: the following record is the query input.
Supply measured koff of H4H1771P (antibody, human IgG4, V domains shown, Human IgG4 Fc (H4H)) VH: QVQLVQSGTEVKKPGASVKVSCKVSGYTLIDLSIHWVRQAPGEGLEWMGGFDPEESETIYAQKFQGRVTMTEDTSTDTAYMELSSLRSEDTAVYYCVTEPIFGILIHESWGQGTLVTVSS VL: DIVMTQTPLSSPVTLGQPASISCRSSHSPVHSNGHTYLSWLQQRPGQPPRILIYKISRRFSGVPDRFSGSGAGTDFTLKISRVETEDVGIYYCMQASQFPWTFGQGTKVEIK in your reply.
5.51e-05
